Data origin: patent US8580825B2

- Tgt: recombinant human FLAP protein (Homo sapiens)
- Sequence (P20292 whole entry): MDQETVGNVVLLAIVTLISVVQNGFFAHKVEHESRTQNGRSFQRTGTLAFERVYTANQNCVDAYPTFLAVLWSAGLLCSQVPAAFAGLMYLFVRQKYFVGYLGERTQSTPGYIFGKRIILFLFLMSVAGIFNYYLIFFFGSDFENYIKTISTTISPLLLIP
- Assay Method Text: FLAP binding assay (Scintillation Proximity Assay, displacement of [125I]L-691,831)
- Run Parameters: read-out: FLAP SPA IC50
- Method: Compounds are assessed for the ability to bind to FLAP in a binding assay that measures compound-specific displacement of an iodinated (^125I) FLAP inhibitor via a Scintillation Proximity Assay format (adapted from S. Charleson et al., Mol. Pharmacol., 1992, 41, 873-879). Cell pellets produced from sf9 insect cells expressing recombinant human FLAP protein are resuspended in buffer A [15 mM Tris-HCl (pH 7.5), 2 mM MgCl2, 0.3 mM EDTA, 1 mM PMSF]. […]
Please go through the items and note down their IC50.
One number for each entry, in nM.

Use these answered entries as a reference point.
- Compound: "CC(C)C(C)(c1ccc(-c2cnc(N)nc2)nc1)c1noc(-c2cnn(C)c2)n1 (stereo not shown)"
  Units: "nM"
  IC50: 4.7
- Compound: "COCCn1cc(-c2nc([C@](C)(c3ccc(-c4cnc(N)nc4)nc3)C(C)C)no2)cn1"
  Units: "nM"
  IC50: 170
- Compound: "CCNc1cnc(-c2nc([C@@](C)(c3ccc(-c4cnc(N)nc4)nc3)C(C)C)no2)cn1"
  Units: "nM"
  IC50: 1.8
- Compound: "CC(C)(O)Cn1cc(-c2nc([C@](C)(c3ccc(-c4cnc(N)c(F)c4)nc3)C3CC3)no2)cn1"
  Units: "nM"
  IC50: 2000

Give me IC50 for each of these compounds, listed below.
1. CNC(=O)Cn1cc(-c2nc([C@@](C)(c3ccc(-c4cnc(N)nc4)nc3)C(C)C)no2)cn1
2. COCCNc1ccc(-c2nc(C(C)(c3ccc(-c4cnc(N)nc4)nc3)C(C)C)no2)nn1 (stereo not shown)
3. COCCn1cc(-c2nc(C(C)(c3ccc(-c4cnc(N)nc4)nc3)C(C)C)no2)cn1 (stereo not shown)
4. COCCn1cc(-c2nc([C@@](C)(c3ccc(-c4cnc(N)nc4)nc3)C3CC3)no2)cn1
5. CN(C)CCn1cc(-c2nc([C@@](C)(c3ccc(-c4cnc(N)nc4)nc3)C3CC3)no2)cn1
6. CC(C)C(C)(c1ccc(-c2cnc(N)nc2)nc1)c1noc(N2CCNCC2)n1 (stereo not shown)
7. CC(C)C(C)(c1ccc(-c2cnc(N)nc2)nc1)c1noc(-c2cnn(CC(F)F)c2)n1 (stereo not shown)
8. CC(C)C(C)(c1ccc(-c2cnc(N)nc2)nc1)c1noc(-c2cnn(CC(=O)N(C)C)c2)n1 (stereo not shown)

1: 12.7; 2: 7.5; 3: 6.3; 4: 32; 5: 32; 6: 400; 7: 6.5; 8: 14.4

Give me IC50 for each of these compounds, listed below.
1. CC(C)[C@](C)(c1ccc(-c2cnc(N)nc2)nc1)c1noc(-c2cnn(CC(=O)NC3CCOCC3)c2)n1
2. CC(C)C(C)(c1ccc(-c2cnc(N)nc2)nc1)c1noc(-c2cnn(CC(C)(C)O)c2)n1 (stereo not shown)
3. Cc1nc(N)ncc1-c1ccc(C(C)(c2noc(-c3cnn(CC(C)(C)O)c3)n2)C2CC2)cn1 (stereo not shown)
4. CC(C)[C@](C)(c1ccc(-c2cnc(N)cn2)nc1)c1noc(-c2cnn(CC(C)(C)O)c2)n1

[21, 10, 450, 5.9]

Give me IC50 for each of these compounds, listed below.
1. CC(C)C(C)(c1ccc(-c2cnc(N)nc2)nc1)c1noc(-c2cccnc2)n1 (stereo not shown)
2. CC(C)[C@](C)(c1ccc(-c2cnc(N)nc2)nc1)c1noc(-c2cnn(CCS(C)(=O)=O)c2)n1
3. COC(=O)C(C)(C)n1cc(-c2nc(C(C)(C)c3ccc(-c4cnc(N)nc4)nc3)no2)cn1
4. C[C@@](c1ccc(-c2cnc(N)cn2)nc1)(c1noc(-c2cnn(C3COC3)c2)n1)C1CC1
5. CC(C)C(C)(c1ccc(-c2cnc(N)nc2)nc1)c1noc(-c2cnn(C3COC3)c2)n1 (stereo not shown)
6. CNC(=O)Cn1cc(-c2nc(C(C)(c3ccc(-c4cnc(N)nc4)nc3)C(C)C)no2)cn1 (stereo not shown)

12.4
10
140
15
5.9
5.6
